System: HEK-293T
assay_explanation: Multiplex assay against HEK293T
Format: toxicity, cell-based
run_conditions: human, 48 h, 1 µM, compound concentration 1 uM, replicate 1
parameter: Population Tubulin-Different-Phenotype (%)
Expressed in %, but write only the number.

# example entries with known answers
C[C@@H]1CC(=O)Nc2cccc(-c3ccc4c(c3)c(-c3cnn(C)c3)nn4C)c2N1: 13
CC(C)(O)C(=O)N1CCN(c2ccc(C(F)(F)F)c(C3=C(c4c[nH]c5ccccc45)C(=O)NC3=O)c2)CC1: 14
Cl.Cl.OCCOCCN1CCN(C(c2ccccc2)c2ccc(Cl)cc2)CC1 (stereo not drawn) [HYDROXYZINE HYDROCHLORIDE]: 14

Please fill in: Population Tubulin-Different-Phenotype (%) reported for COc1cc2nc(N3CCN(C(=O)c4ccco4)CC3)nc(N)c2cc1OC.Cl [PRAZOSIN HYDROCHLORIDE] = 8

Reported Population Tubulin-Different-Phenotype (%) for `COc1cc(C(=O)N2CC[C@@H](O)[C@@H](N)C2)cc2nc(-c3cc4ccccc4n3CC3CC3)n(C)c12.Cl` was 28

Measured Population Tubulin-Different-Phenotype (%), `CCCCC[C@H](O)/C=C/[C@H]1[C@H](O)CC(=O)[C@@H]1CCCCCCC(=O)O` : 11

The recorded Population Tubulin-Different-Phenotype (%) for `COC(c1ccccc1)(c1ccccc1)[C@H](Oc1nc(C)cc(C)n1)C(=O)O` is 13

Lab note: measured Population Tubulin-Different-Phenotype (%) of `CN(C)C(=O)Cn1cc(-c2ccc(-c3nnc4ccccn34)cc2)cn1` was 13

###

Test system: HEK-293T
assay_explanation: Multiplex assay against HEK293T
Format: toxicity, cell-based
run_conditions: human, 48 h, 10 µM, compound concentration 10 uM, replicate 1
The entries below are paired with their reported Population Mitochondria Different-Phenotype (%).
Write down the numeric answer in % and omit the unit.

COc1cc2nc(N3CCN(C(=O)c4ccco4)CC3)nc(N)c2cc1OC.Cl [PRAZOSIN HYDROCHLORIDE]: 32

Population Mitochondria Different-Phenotype (%) measured on `CSc1nc(NC2CCCC2)c([N+](=O)[O-])c(NC2CCCC2)n1` = 27

Record summary for `CCCCC[C@H](O)/C=C/[C@H]1[C@H](O)CC(=O)[C@@H]1CCCCCCC(=O)O` : reported Population Mitochondria Different-Phenotype (%) = 17

Reported Population Mitochondria Different-Phenotype (%) ( `COc1cc(OC2CCN(C(C)=O)CC2)ccc1C(=O)N1CCC(N2C(=O)OCc3ccccc32)CC1` ) = 30

###

Tested on: HEK-293T
assay_explanation: Multiplex assay against HEK293T
Format: toxicity, cell-based
run_conditions: human, 24 h, 1 µM, compound concentration 1 uM, replicate 1
parameter: Population Tubulin-Different-Phenotype (%)
Answer by giving the amount and then stating its unit.

Reference set, count: 3
Cn1cc(C(=O)OCC2CCN(CCNS(C)(=O)=O)CC2)c2ccccc21: 16%
Cc1cc(O)c(-c2ccc([C@@H](C)CN(C)C)cc2)c2c1[nH]c(=O)c1sccc12: 67%
C[C@@H]1CC(=O)Nc2cccc(-c3ccc4c(c3)c(-c3cnn(C)c3)nn4C)c2N1: 20%

Please look at the following molecule next.
// Population Tubulin-Different-Phenotype (%) lookup, molecule = `N[C@](CC1c2ccccc2Oc2ccccc21)(C(=O)O)[C@H]1C[C@@H]1C(=O)O` , result: 15%
